# assay-summary: NCI Yeast Anticancer Drug Screen. Data for the rad50 strain (AID 155);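 also: 0% = growth of vehicle-only cultures of the same strain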
# assay-conditions: S. cerevisiae rad50 strain growth inhibition; at 50.0 µM
# Protocol: Growth inhibition of yeast strains with defined genetic alterations is measured as a screen for potential anti-cancer activity. Selected strains with alterations in DNA damage repair or cell cycle control were exposed to compounds and growth inhibition was measured relative to vehicle treated controls. The strain used in this assay is rad50
This is part of a sample that, as a whole, favours compounds with a hit. Of some 79,000 tested, about 15% had one in any assay. Activity calls are given as the source filed them. Rule as the data show it: active = growth inhibition above about 70%; inactive = the rest.
Parameter call: string, one of T for active, F for inactive

O=C(CCC(=O)OCCOc1ccccc1)OCCOc1ccccc1; F
Nc1nc(-c2ccccn2)cc2ccccc12; F

q: Outcome logged for CCCCCCCCCCCCCCCCCC(=O)OC(Cc1ccccc1)C(=O)O (stereo unspecified) in this assay:
a: F

q: And then "Fc1ccc(NC(=S)SCc2ccc3c(c2)OCO3)cc1" , what is it?
a: T

q: And then "O=C1C(=Cc2ccc(O)cc2)N=C(c2ccccc2)N1n1c(-c2ccccc2)nc2ccccc2c1=O" , what is it?
a: T

q: And then CCCCCCCCCCCCCCCCCCOCC(O)CO (stereo unspecified) , what is it?
a: F

---

# assay-summary: NCI Yeast Anticancer Drug Screen. Data for the sgs1 mgt1 strain (AID 161);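 also: 0% = growth of cultures given vehicle only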
# assay-conditions: S. cerevisiae sgs1 mgt1 strain, at 50.0 µM, stronger effect = higher value
This is part of a sample that, as a whole, favours compounds with a hit. Of some 79,000 tested, about 15% had one in any assay.
observation-type: growth inhibition (%)
Please reply with the bare figure in % and do not write the unit itself.

Past entries and their recorded results:
CCCCCCCCCCCCCCCC[N+](C)(C)c1nc(Cl)nc(Cl)n1; 99.2
Cc1ccc(C(C)C)c2c1CN(CCN1COc3c(C(C)C)ccc(C)c3C1)CO2; -13.8
COc1cc2c(c(OC)c1OC)-c1ccc(SC)c(=O)cc1C(NC(=O)c1ccccc1)CC2 (stereo unspecified); 83.5
O=[N+]([O-])c1cccc2nc3ccccc3c(NCCN(CCO)CCO)c12; 52.5
O=S(=O)(O)c1ccc(NN(c2c(O)ccc3ccccc23)S(=O)(=O)O)cc1; -19.7

# next compound below
q: Given the entry "O=C1C(Cl)=C(N2CCN(C3=C(Cl)C(=O)c4ccccc4C3=O)CC2)C(=O)c2ccccc21" , report its measured growth inhibition.
a: 88.7

---

# assay-summary: NCI Yeast Anticancer Drug Screen. Data for the rad50 strain (AID 155);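 also: 0% = growth of vehicle-only cultures of the same strain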
# assay-conditions: S. cerevisiae rad50 strain growth inhibition; at 50.0 µM (retest, dose inferred, filed as 5.0)
This is part of a sample that, as a whole, favours compounds with a hit. Of some 79,000 tested, about 15% had one in any assay. Active and inactive are the calls of the source. Rule as the data show it: active = growth inhibition above about 70%; inactive = the rest.
Parameter call: string, one of Yes = active, No = inactive

As a guide, the following entries are already answered.
CCCCN(CCCC)C(Cl)=Nc1ccccc1; No
c1cc2c3c(c1)c1cc4c(cc1c[n+]3CC2)OCO4; No
COC(=O)[C@]1(C)CCC[C@]2(C)c3cc(C(C)=O)c(C(C)C)cc3CC[C@@H]12; No

q: Outcome logged for O=[N+]([O-])c1ccc(Cl)c(C2CC(c3cccc4ccccc34)=Nc3ccccc3S2)c1 (stereo unspecified) in this assay:
a: No

---

# assay-summary: NCI Yeast Anticancer Drug Screen. Data for the mlh1 rad18 strain (AID 175)
# assay-conditions: S. cerevisiae mlh1 rad18 strain growth inhibition; at 5.0 µM (retest, dose inferred, filed as 0.5); stronger effect = higher value
Compounds without any hit were thinned out: in the full panel of roughly 79,000, 15% have a hit.
# key: entry, value: growth inhibition
Please reply with the bare figure in % and do not write the unit itself.

Past entries and their recorded results:
C=C1CCC[C@@H]2[C@@](C)(Cc3cc(O)ccc3O)C(C)CC[C@]12C (stereo partly drawn); 11
C=C[C@]1(C)C=C2C(O)CC3C(C)(C)CCC[C@]3(CO)C2CC1 (stereo partly drawn); 26
CCN(CC)CCNc1nc(NCCN(CC)CC)c2nc(-c3ccccc3)c(-c3ccccc3)nc2n1; 92

q: Given the entry CC(NC(=O)/C(C#N)=C/c1ccc2[nH]ccc2c1)c1ccccc1 (stereo not drawn) , report its measured growth inhibition.
a: -5

q: And then "C=CC(=O)O" , what is it?
a: 1

q: And then "CCN(CC)CCC(=O)/C=C/c1ccccc1" , what is it?
a: 32

q: And then COC(=O)C(CC(C)=O)CS(=O)(=O)CC(=O)C(=O)Nc1cccc([N+](=O)[O-])c1 (stereo not drawn) , what is it?
a: -2

---

# key: entry, value: growth inhibition
# assay-summary: NCI Yeast Anticancer Drug Screen. Data for the bub3 strain (AID 167)
# assay-conditions: S. cerevisiae bub3 mutant strain, at 50.0 µM (retest, dose inferred, filed as 5.0), stronger effect = higher value
# Description: Growth inhibition of yeast strains with defined genetic alterations is measured as a screen for potential anti-cancer activity. Selected strains with alterations in DNA damage repair or cell cycle control were exposed to compounds and growth inhibition was measured relative to vehicle treated controls. The strain used in this assay is bub3
Compounds without any hit were thinned out: in the full panel of roughly 79,000, 15% have a hit. Activity calls are given as the source filed them. No stated cut-off is given here; in the data, active means growth inhibition above about 70%; inactive means the rest.

Past entries and their recorded results:
O=NC1C(Br)C2CC1C1C(Cl)C(Cl)CC21 (stereo not given); -6% (inactive)
N#Cc1c(/N=C/c2ccccc2Cl)sc2c1CCC2; -10% (inactive)
CCN(CC)CCCn1c2cc(=O)c(=O)cc-2[nH]c2cc(C)ccc21; 51% (inactive)

q: Given the entry "CCN(CC)CCOc1ccc2c(C)c(-c3ccccc3)c(=O)oc2c1" , report its measured growth inhibition.
a: 27% (inactive)

q: And then Oc1cc2c(cc1C(c1ccc3c(c1)OCO3)N1CCN(C(c3ccc4c(c3)OCO4)c3cc4c(cc3O)OCO4)CC1)OCO2 (stereo not given) , what is it?
a: -1% (inactive)

---

# assay-summary: NCI Yeast Anticancer Drug Screen. Data for the rad50 strain (AID 155);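 also: 0% = growth of vehicle-only cultures of the same strain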
# assay-conditions: S. cerevisiae rad50 strain growth inhibition; at 5.0 µM (retest, dose inferred, filed as 0.5); stronger effect = higher value
# Procedure: Growth inhibition of yeast strains with defined genetic alterations is measured as a screen for potential anti-cancer activity. Selected strains with alterations in DNA damage repair or cell cycle control were exposed to compounds and growth inhibition was measured relative to vehicle treated controls. The strain used in this assay is rad50
The panel holds about 79,000 compounds, 15% with a hit somewhere; the sample as a whole holds those more often.
observation-type: growth inhibition (%)
Please reply with the bare figure in % and do not write the unit itself.

Past entries and their recorded results:
O=C1OC(CN2CCOCC2)CN1/N=C/c1ccc([N+](=O)[O-])o1 (stereo unspecified); 6
CCCCCCCCCCCCCCCCOP(=O)(O)OCC(NC(C)=O)C(=O)O (stereo unspecified); -2
CCCCCCCCCCCCCCCCCCOCC(COP(=O)([O-])OCC[N+](C)(C)C)OC (stereo unspecified); -16
Oc1cc2c(cc1C(c1ccc3c(c1)OCO3)N1CCN(C(c3ccc4c(c3)OCO4)c3cc4c(cc3O)OCO4)CC1)OCO2 (stereo unspecified); 2
C=C(C)C(=O)Oc1ccc(N=Nc2ccccc2)ccc1=O; 2

q: Given the entry "CCCCCC[C@H](C/C=C\CCCCCCCC(=O)OC)OC(C)=O" , report its measured growth inhibition.
a: -6

q: And then "COc1ccc2nc3cc(Cl)ccc3c(NCCCNCc3cc(OC)c(OC)c(OC)c3)c2c1" , what is it?
a: 18

q: And then CCCCCCCCCCCCCC1=NCC(c2ccc3ccccc3c2)O1 (stereo unspecified) , what is it?
a: -4

q: And then "CCCCCCCc1c(Cl)nc(Cl)nc1Cl" , what is it?
a: 11

q: And then Cc1c(Cl)cccc1NC(=O)CC1Sc2ccccc2NC1=O (stereo unspecified) , what is it?
a: 23

q: And then "COc1ccc(/C=C/NC=O)cc1" , what is it?
a: -2

---

# key: entry, value: growth inhibition
# assay-summary: NCI Yeast Anticancer Drug Screen. Data for the mec2-1 strain (AID 157)
# assay-conditions: S. cerevisiae mec2-1 strain, at 50.0 µM (retest, dose inferred, filed as 5.0), stronger effect = higher value
The panel holds about 79,000 compounds, 15% with a hit somewhere; the sample as a whole holds those more often.
Please reply with the bare figure in % and do not write the unit itself.

Past entries and their recorded results:
CC(O)CN1CCN(CC(C)O)CC1.[I][Pt+2][I] (configuration not stated); 11
CC1OC(OC2CC(O)(C(=O)CO)Cc3c(O)c4c(c(O)c32)C(=O)c2ccccc2C4=O)CC(N)C1O (configuration not stated); 95

q: Given the entry CCC(C)c1ccc(O)c(C(C)CC)c1 (configuration not stated) , report its measured growth inhibition.
a: 98

q: And then "C/C(=N\O)c1cc(Br)cc([N+](=O)[O-])c1O" , what is it?
a: 35

q: And then "O=C(c1ccco1)N(C(=S)N1CCN(c2ccccn2)CC1)C1CCCCC1" , what is it?
a: 49

q: And then "CC(=O)c1ccc(N)cc1" , what is it?
a: 100

q: And then "CCCC1=CCCC1" , what is it?
a: -6

q: And then "COc1cc(/C=C/C(=O)NCCCCN=[N+]=[N-])ccc1OCc1ccccc1" , what is it?
a: -11

q: And then "Nc1nc(-c2ccccn2)cc2ccccc12" , what is it?
a: 76

q: And then "CCCCN(C(=O)CCl)c1ccccc1" , what is it?
a: 9

q: And then "O=C1C(=Cc2ccc(O)cc2)N=C(c2ccccc2)N1n1c(-c2ccccc2)nc2ccccc2c1=O" , what is it?
a: 23

q: And then "Fc1cccc(NC(=S)SCc2ccc(Cl)c(Cl)c2)c1" , what is it?
a: 93
